# assay explanation: Concentration of dissolved triterpenoid in the aqueous cyclodextrin solution (HPLC-ESI MS)
# Type: physicochemical
# conditions: solution method A: water, saturated sodium hydrogencarbonate solution, ethanol, 2-hydroxypropyl-γ-cyclodextrin, 50° C.
Provide the reported Conc. of dissolved substance of each item.
Numeric answer only, unit µg/mL assumed.

Prompt: Which Conc. of dissolved substance is listed for C=C(C)[C@@H]1CC[C@]2(C(=O)OCC)CC[C@]3(C)[C@H](CC[C@@H]4[C@@]5(C)CC[C@H](OC(=O)CCC(=O)O)C(C)(C)[C@@H]5CC[C@]43C)[C@@H]12 ?
Completion: 45000

Prompt: Which Conc. of dissolved substance is listed for C=C(C)[C@@H]1CC[C@]2(C(=O)O)CC[C@]3(C)[C@H](CC[C@@H]4[C@@]5(C)CC[C@H](O)C(C)(C)[C@@H]5CC[C@]43C)[C@@H]12 [compound 2, Betulinic acid, reference compound] ?
Completion: 38000

Prompt: Which Conc. of dissolved substance is listed for COC(=O)[C@@]12CC[C@]3(C)[C@H](CC[C@@H]4[C@@]5(C)CC[C@H](OC(=O)CCC(=O)O)C(C)(C)[C@@H]5CC[C@]43C)C1=C(C(C)C)C(=O)C2=O ?
Completion: 50000

----------
Provide the reported Conc. of dissolved substance of each item.
# assay explanation: Concentration of dissolved triterpenoid in the aqueous cyclodextrin solution (HPLC-ESI MS)
# Format: physicochemical
# conditions: solution method B: water, propylene glycol, 2-hydroxypropyl-γ-cyclodextrin, 50° C.

Prompt: Which Conc. of dissolved substance is listed for CC(=O)O[C@H]1CC[C@]2(C)[C@H]3CC[C@@H]4C5=C(C(C)C)C(=O)C[C@]5(C(=O)OCC[N+](C)(C)C)CC[C@@]4(C)[C@]3(C)CC[C@H]2C1(C)C.[Br-] [4b] ?
Completion: 47 mg/mL

Prompt: Which Conc. of dissolved substance is listed for CCOC(=O)[C@@]12CC[C@]3(C)[C@H](CC[C@@H]4[C@@]5(C)CC[C@H](O[C@@H]6O[C@H](CO)[C@@H](O)[C@H](O)[C@H]6O)C(C)(C)[C@@H]5CC[C@]43C)C1=C(C(C)C)C(=O)C2 [4i] ?
Completion: 56 mg/mL

Prompt: Which Conc. of dissolved substance is listed for CC(=O)O[C@H]1CC[C@]2(C)[C@H]3CC[C@@H]4C5=C(C(C)C)C(=O)C[C@]5(C(=O)OCC[n+]5ccccc5)CC[C@@]4(C)[C@]3(C)CC[C@H]2C1(C)C.[Br-] [4c] ?
Completion: 33 mg/mL
